system: Biotinylated recombinant human CD3εδ (Acro Biosystems, CDD-H82W6) (human) (UniProt P07766)
Sequence (P07766 23-126, stated change not applied, chain 1 of 2): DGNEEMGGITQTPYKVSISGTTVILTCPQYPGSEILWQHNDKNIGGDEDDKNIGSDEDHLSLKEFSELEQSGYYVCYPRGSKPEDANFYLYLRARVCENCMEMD
Sequence (P04234 22-105, stated change not applied, chain 2 of 2, further chain): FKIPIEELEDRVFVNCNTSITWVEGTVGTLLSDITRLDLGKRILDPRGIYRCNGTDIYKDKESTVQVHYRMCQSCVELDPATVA
run description: Octet BLI, biotinylated CD3εδ on streptavidin sensors, 1:1 model
Consider the following binders; for each one, report its Kd.
Answers are plain numbers, in µM.

EGFR-CD3 DuetMab with anti-CD3 variant AZ Vκ 26 + AZ VH R79 (bispecific antibody, part only; not given: anti-EGFR arm, constant regions, V domains shown, not shown: another chain or arm of the molecule; a dimerising Fc or GST; small tags and cut ends) VH: EVQLVESGGALVKPGGSLRLSCAASGFTFTRAWMHWVRQAPGKQLEWVAQIKDRSQTYATYYAESVKGRFTISRDDSKNTLYLQMNSLKTEDTAVYYCRGVYYAVTPFDYWGQGTLVTVSS VL: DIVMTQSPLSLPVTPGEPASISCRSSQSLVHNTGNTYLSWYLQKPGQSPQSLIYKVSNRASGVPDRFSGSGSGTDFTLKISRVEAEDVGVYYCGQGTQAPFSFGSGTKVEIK
0.712

Request: // returns reported Kd for input EGFR-CD3 DuetMab with anti-CD3 variant AZ Vκ 17 + AZ VH E79 (bispecific antibody, part only; not given: anti-EGFR arm, constant regions, V domains shown, not shown: another chain or arm of the molecule; a dimerising Fc or GST; small tags and cut ends) VH: EVQLVESGGALVKPGGSLRLSCAASGFTFTEAWMHWVRQAPGKQLEWVAQIKDRSQTYATYYAESVKGRFTISRDDSKNTLYLQMNSLKTEDTAVYYCRGVYYAVTPFDYWGQGTLVTVSS VL: DIVMTQSPLSLPVTPGEPASISCRSSQSLVHNTGNTYLSWYLQKPGQSPQSLIYKVSNRASGVPDRFSGSGSGTDFTLKISRVEAEDVGVYYCGQGTQAPFTFGSGTKVEIK
Result: 5.62
